Source of measurements: ChEMBL document CHEMBL1134905

Record form. Attribute: Activity. Fill in for each entry.
System: Rattus norvegicus
Protocol Summary: In vivo biological activity against HDL relative to gemfibrozil in male Sprague-Dawley rats
Type: functional
Please state the value as a number alone, without comment.

(Q) Return reported Activity; argument: `Cc1ccc(Cl)cc1/N=C(\S)NCC(C)(C)C(N)=O`
(A) 0.57

(Q) Return reported Activity; argument: `Cc1ccc(Cl)cc1/N=C(\S)NCC1(C(=O)O)CCC1`
(A) 1.19

(Q) Return reported Activity; argument: `Cc1ccc(C)c(N/C(S)=N/CC(C)(C)C(=O)O)c1`
(A) 0.54

(Q) Return reported Activity; argument: `COC(=O)C(C)(C)C/N=C(\S)Nc1cc(Cl)ccc1C`
(A) 0.93

(Q) Return reported Activity; argument: `Cc1ccc(Cl)cc1/N=C(\S)NCCO`
(A) 0.61

(Q) Return reported Activity; argument: `Cc1ccc(Cl)cc1/N=C(\S)NCC1(C(=O)O)CCCC1`
(A) 1.09

(Q) Return reported Activity; argument: `Cc1ccc(Cl)cc1/N=C(\S)NCC1(C(=O)O)CCCCC1`
(A) 0.73

(Q) Return reported Activity; argument: Cc1ccc(C)c(OCCCC(C)(C)C(=O)O)c1 [GEMFIBROZIL]
(A) 1

(Q) Return reported Activity; argument: `COc1ccc(Cl)cc1/N=C(\S)NCC(C)(C)C(=O)O`
(A) 0.62

(Q) Return reported Activity; argument: `Cc1ccc(Cl)cc1NC(=O)NCC(C)(C)C(=O)O`
(A) 0.36

(Q) Return reported Activity; argument: Cc1ccc(Cl)cc1/N=C(\S)N1CCCC(C)(C(=O)O)C1 (stereo unspecified)
(A) 0.33
